These measurements were taken from ChEMBL document CHEMBL5291721.

Assignment: determine reported AC50 for the given molecules.

Task: Form field - read-out: AC50; system: Glucocorticoid receptor (Homo sapiens, UniProt P04150); submitted item: CN1CCCN=C1COC(=O)C(O)(c1ccccc1)C1CCCCC1 (centres undefined); note: assay procedure not described here
Sequence (P04150 whole entry): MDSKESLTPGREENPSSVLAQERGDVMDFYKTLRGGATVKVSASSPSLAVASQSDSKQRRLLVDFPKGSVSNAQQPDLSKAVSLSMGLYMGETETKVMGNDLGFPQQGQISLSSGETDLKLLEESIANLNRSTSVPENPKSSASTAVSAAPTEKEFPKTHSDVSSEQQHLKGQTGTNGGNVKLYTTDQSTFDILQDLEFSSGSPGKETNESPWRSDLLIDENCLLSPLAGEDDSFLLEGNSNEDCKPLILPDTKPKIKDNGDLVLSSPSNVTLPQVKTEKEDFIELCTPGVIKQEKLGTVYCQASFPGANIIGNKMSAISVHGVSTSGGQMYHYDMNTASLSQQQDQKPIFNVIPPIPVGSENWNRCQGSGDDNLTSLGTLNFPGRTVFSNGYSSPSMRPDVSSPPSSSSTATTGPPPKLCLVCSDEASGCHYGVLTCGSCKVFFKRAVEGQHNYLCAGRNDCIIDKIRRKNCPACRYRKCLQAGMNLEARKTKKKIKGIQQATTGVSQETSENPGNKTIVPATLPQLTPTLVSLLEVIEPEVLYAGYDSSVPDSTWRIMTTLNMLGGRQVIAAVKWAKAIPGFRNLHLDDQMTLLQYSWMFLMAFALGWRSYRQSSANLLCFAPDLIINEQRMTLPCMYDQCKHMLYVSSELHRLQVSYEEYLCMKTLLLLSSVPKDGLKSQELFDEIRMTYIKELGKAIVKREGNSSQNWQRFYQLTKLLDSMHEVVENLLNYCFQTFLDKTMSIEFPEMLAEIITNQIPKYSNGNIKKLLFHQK
Output: > 10 µM

Task: Form field - read-out: AC50; system: Glucocorticoid receptor (Homo sapiens, UniProt P04150); submitted item: O=C1CN=C(c2ccccc2)c2cc(Cl)ccc2N1CC(F)(F)F; note: assay procedure not described here
Output: > 30 µM

Task: Form field - read-out: AC50; system: Glucocorticoid receptor (Homo sapiens, UniProt P04150); submitted item: CCC(C(=O)O)c1ccc(CC(C)C)cc1 (centres undefined); note: assay procedure not described here
Output: > 30 µM

Task: Form field - read-out: AC50; system: Glucocorticoid receptor (Homo sapiens, UniProt P04150); submitted item: CC(=O)NS(=O)(=O)c1ccc(N)cc1 [SULFACETAMIDE]; note: assay procedure not described here
Output: > 10 µM

Task: Form field - read-out: AC50; system: Glucocorticoid receptor (Homo sapiens, UniProt P04150); submitted item: CC(=O)N[C@H]1[C@H]([C@H](O)[C@H](O)CO)OC(C(=O)O)=C[C@@H]1N=C(N)N; note: assay procedure not described here
Output: > 30 µM

Task: Form field - read-out: AC50; system: Glucocorticoid receptor (Homo sapiens, UniProt P04150); submitted item: Cc1c(Cl)cccc1Nc1ccccc1C(=O)O; note: assay procedure not described here
Output: > 30 µM

Task: Form field - read-out: AC50; system: Glucocorticoid receptor (Homo sapiens, UniProt P04150); submitted item: C[C@]12CCC(=O)C=C1CC[C@@H]1[C@@H]2CC[C@@]2(C)[C@H]1CC[C@]2(C)O; note: assay procedure not described here
Output: 0.44 µM

Task: Form field - read-out: AC50; system: Glucocorticoid receptor (Homo sapiens, UniProt P04150); submitted item: CC(Cc1ccccc1)NCCC(c1ccccc1)c1ccccc1 (centres undefined); note: assay procedure not described here
Output: > 30 µM

Task: Form field - read-out: AC50; system: Glucocorticoid receptor (Homo sapiens, UniProt P04150); submitted item: CN(CCCN1c2ccccc2CCc2ccccc21)CC(=O)c1ccc(Cl)cc1; note: assay procedure not described here
Output: > 30 µM

###

List of AC50 tested on Vasopressin V1a receptor (Homo sapiens). Note: assay procedure not described here.
Sequence (P37288 whole entry): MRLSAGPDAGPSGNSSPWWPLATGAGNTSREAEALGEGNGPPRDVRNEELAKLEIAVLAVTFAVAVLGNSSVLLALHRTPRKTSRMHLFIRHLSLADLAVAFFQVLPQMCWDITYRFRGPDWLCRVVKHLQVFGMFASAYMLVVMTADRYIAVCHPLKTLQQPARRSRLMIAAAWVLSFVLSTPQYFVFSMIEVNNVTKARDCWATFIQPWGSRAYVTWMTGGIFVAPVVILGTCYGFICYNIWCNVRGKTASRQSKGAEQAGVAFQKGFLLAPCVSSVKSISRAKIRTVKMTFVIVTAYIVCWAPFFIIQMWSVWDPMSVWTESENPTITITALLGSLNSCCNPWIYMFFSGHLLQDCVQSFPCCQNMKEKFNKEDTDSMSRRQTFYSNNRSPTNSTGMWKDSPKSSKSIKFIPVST

Task: Record request: AC50 value, item C=C1CC[C@@]2(O)[C@H]3Cc4ccc(O)c5c4[C@@]2(CCN3CC2CC2)[C@H]1O5
Output: > 30 µM

Task: Record request: AC50 value, item NC(=O)C[S+]([O-])C(c1ccccc1)c1ccccc1 (centres undefined) [MODAFINIL]
Output: > 10 µM

Task: Record request: AC50 value, item CNC(=O)c1cc(Oc2ccc(NC(=O)Nc3ccc(Cl)c(C(F)(F)F)c3)cc2)ccn1 [SORAFENIB]
Output: > 30 µM

Task: Record request: AC50 value, item C#C[C@]1(O)CC[C@H]2[C@@H]3CCC4=CCCC[C@@H]4[C@H]3CC[C@@]21C [LYNESTRENOL]
Output: > 30 µM

Task: Record request: AC50 value, item O=C(C[S+]([O-])C(c1ccccc1)c1ccccc1)NO (centres undefined)
Output: > 30 µM

Task: Record request: AC50 value, item O=C(CCCCCCC(=O)Nc1ccccc1)NO [VORINOSTAT]
Output: > 30 µM

Task: Record request: AC50 value, item Nc1nc(N)c2nc(-c3ccccc3)c(N)nc2n1
Output: > 30 µM

Task: Record request: AC50 value, item Cc1cc2c(OCC(CNC(C)(C)C)OC(=O)c3ccccc3)cccc2[nH]1 (centres undefined) [BOPINDOLOL]
Output: > 30 µM

Task: Record request: AC50 value, item COC(=O)[C@@H]1CC2=CC(=O)CC[C@]2(C)[C@@]23O[C@@H]2C[C@@]2(C)[C@@H](CC[C@@]24CCC(=O)O4)[C@H]13 [EPLERENONE]
Output: > 30 µM

Task: Record request: AC50 value, item CC(N)Cc1ccccc1 (centres undefined) [AMPHETAMINE]
Output: > 30 µM

Task: Record request: AC50 value, item Oc1ncnc2[nH]ncc12 [ALLOPURINOL]
Output: > 10 µM

Task: Record request: AC50 value, item CC(C(=O)O)c1ccc(C(=O)c2cccs2)cc1 (centres undefined) [SUPROFEN]
Output: > 10 µM

Task: Record request: AC50 value, item C[C@@H]1O[C@@H]1P(=O)(O)O [FOSFOMYCIN]
Output: > 10 µM

Task: Record request: AC50 value, item CC/C=C\C/C=C\C/C=C\CCCCCCCC(=O)O [LINOLENIC ACID]
Output: > 30 µM

Task: Record request: AC50 value, item CC(=O)N(CC(O)CO)c1c(I)c(C(=O)NCC(O)CO)c(I)c(C(=O)NCC(O)CO)c1I (centres undefined) [IOHEXOL]
Output: > 30 µM

Task: Record request: AC50 value, item COC(=O)[C@H]1[C@@H](OC(=O)c2ccccc2)C[C@@H]2CC[C@H]1N2C [COCAINE]
Output: > 30 µM

Task: Record request: AC50 value, item CCCCCOC(=O)Nc1nc(=O)n([C@@H]2O[C@H](C)[C@@H](O)[C@H]2O)cc1F [CAPECITABINE]
Output: > 30 µM

Task: Record request: AC50 value, item CC(=O)NS(=O)(=O)c1ccc(N)cc1 [SULFACETAMIDE]
Output: > 10 µM

Task: Record request: AC50 value, item CC(=O)O[C@]1(C(C)=O)CC[C@H]2[C@@H]3C[C@H](C)C4=CC(=O)CC[C@]4(C)[C@H]3CC[C@@]21C [MEDROXYPROGESTERONE ACETATE]
Output: > 30 µM

###

- TARGET SYSTEM: Muscarinic acetylcholine receptor M2 (Homo sapiens); note: assay procedure not described here
- Sequence (P08172 whole entry): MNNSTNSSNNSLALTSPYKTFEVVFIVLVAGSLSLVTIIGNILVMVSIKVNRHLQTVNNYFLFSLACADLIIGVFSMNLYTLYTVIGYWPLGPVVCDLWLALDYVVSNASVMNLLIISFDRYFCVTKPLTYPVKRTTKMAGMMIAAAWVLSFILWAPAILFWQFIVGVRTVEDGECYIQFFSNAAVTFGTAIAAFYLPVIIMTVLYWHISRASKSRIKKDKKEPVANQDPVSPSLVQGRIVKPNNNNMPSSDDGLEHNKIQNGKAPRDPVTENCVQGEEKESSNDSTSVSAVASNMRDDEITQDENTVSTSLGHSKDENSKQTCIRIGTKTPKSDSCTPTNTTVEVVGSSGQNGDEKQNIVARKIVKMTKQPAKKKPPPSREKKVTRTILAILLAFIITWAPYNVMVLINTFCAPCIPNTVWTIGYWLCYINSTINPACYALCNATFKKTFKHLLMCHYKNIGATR
- Type: functional, cell-based
MEASURE NAME: AC50

Task: Record request: AC50 value, item CCCCOc1cc(C(=O)NCCN(CC)CC)c2ccccc2n1 [DIBUCAINE]
Output: > 10 µM

Task: Record request: AC50 value, item CN(CCOc1ccc(NS(C)(=O)=O)cc1)CCc1ccc(NS(C)(=O)=O)cc1 [DOFETILIDE]
Output: > 30 µM

Task: Record request: AC50 value, item COc1c(C)c2c(c(O)c1C/C=C(\C)CCC(=O)OCCN1CCOCC1)C(=O)OC2 [MYCOPHENOLATE MOFETIL]
Output: > 30 µM

Task: Record request: AC50 value, item CC1=CC(=O)c2ccccc2C1=O [MENADIONE]
Output: > 10 µM

Task: Record request: AC50 value, item COc1c(N2CCNC(C)C2)c(F)cc2c(=O)c(C(=O)O)cn(C3CC3)c12 (centres undefined) [GATIFLOXACIN]
Output: > 10 µM

Task: Record request: AC50 value, item COC(=O)[C@@H]1CC2=CC(=O)CC[C@]2(C)[C@@]23O[C@@H]2C[C@@]2(C)[C@@H](CC[C@@]24CCC(=O)O4)[C@H]13 [EPLERENONE]
Output: > 30 µM

Task: Record request: AC50 value, item C1COC(NC(C2CC2)C2CC2)=N1 [RILMENIDINE]
Output: > 10 µM

Task: Record request: AC50 value, item C#CCN[C@@H]1CCc2ccccc21 [RASAGILINE]
Output: > 30 µM

Task: Record request: AC50 value, item CCOC(=O)[C@H](CCc1ccccc1)N[C@H]1CCCN2CCC[C@@H](C(=O)O)N2C1=O [CILAZAPRIL]
Output: > 30 µM

Task: Record request: AC50 value, item O=C(O)CCCc1ccccc1 [PHENYLBUTANOIC ACID]
Output: > 30 µM

Task: Record request: AC50 value, item Nc1nc(N)c2nc(-c3ccccc3)c(N)nc2n1
Output: > 30 µM

Task: Record request: AC50 value, item CC(N)Cc1ccccc1 (centres undefined) [AMPHETAMINE]
Output: > 30 µM

Task: Record request: AC50 value, item CCCCN1CCCCC1C(=O)Nc1c(C)cccc1C (centres undefined) [BUPIVACAINE]
Output: > 30 µM

Task: Record request: AC50 value, item C[C@H]1O[C@H](O[C@H]2[C@H](O)[C@@H](O)[C@@H](O[C@H]3[C@H](O)[C@@H](O)C(O)O[C@@H]3CO)O[C@@H]2CO)[C@H](O)[C@@H](O)[C@@H]1N[C@H]1C=C(CO)[C@@H](O)[C@H](O)[C@H]1O (some centres undefined) [ACARBOSE]
Output: > 10 µM

Task: Record request: AC50 value, item O=C1CN=C(c2ccccc2)c2cc(Cl)ccc2N1CC(F)(F)F [HALAZEPAM]
Output: > 30 µM

Task: Record request: AC50 value, item CN1C(=O)CC(c2ccccc2)C1=O (centres undefined) [PHENSUXIMIDE]
Output: > 10 µM

Task: Record request: AC50 value, item Oc1ncnc2[nH]ncc12 [ALLOPURINOL]
Output: > 10 µM

Task: Record request: AC50 value, item CN1C(=O)CC(C)(c2ccccc2)C1=O (centres undefined) [METHSUXIMIDE]
Output: > 10 µM

Task: Record request: AC50 value, item CCNC(C)Cc1cccc(C(F)(F)F)c1 (centres undefined) [FENFLURAMINE]
Output: > 30 µM
